Just for reference, PubChem BioAssay (NCI) is where these values come from.

# Test system: SK-MEL-28 melanoma
# METHOD NOTES: NCI tumour cell line growth inhibition, 48 h
Assignment: determine reported TGI for the given compounds.

Lab note: COc1cccc(NC(=O)C(=O)C2C=CCS2(=O)=O)c1 (stereo unspecified) gave TGI of > 100 µM

Lab note: CCCCc1c2c(c(C)c3c1C(=O)OC3)Oc1ccccc1O2 gave TGI of > 100 µM

Lab note: CC[C@@]1(CCC(=O)NCCc2c[nH]c3ccccc23)CCC(=O)N2CCc3c([nH]c4ccccc34)[C@H]21 gave TGI of > 100 µM

Lab note: COc1cc2ccc1OCc1cccc(n1)COc1ccc(cc1OC)C=NCCNCCN=C2 gave TGI of > 100 µM

Lab note: CCCCCCCC(=O)[O][Hg][CH2]C1COC([CH2][Hg][O]C(=O)CCCCCCC)CO1 (stereo unspecified) gave TGI of 27 µM

Lab note: COc1cc(/C=N/NC2=NCCCCN2)ccc1O gave TGI of > 100 µM

Lab note: O=C1NC(c2cccc(OCc3ccccc3)c2)Nc2ccccc21 (stereo unspecified) gave TGI of > 85.7 µM

Lab note: [CH3][Sn]([CH3])([CH3])[O][N+](=O)[O-] gave TGI of > 10 µM

Lab note: CC(=O)O[C@H]1CC2C=CC3C(CCC31)O2 (stereo partly specified) gave TGI of > 100 µM

Lab note: C[Si](C)(C)C(Sc1ccccc1)(Sc1ccccc1)Sc1ccccc1 gave TGI of > 100 µM

Lab note: O=c1c2ccccc2[nH]c2c(Cl)cc(Cl)c(N3CCCCC3)c12 gave TGI of > 100 µM

====

# System: OVCAR-5 ovarian
# METHOD NOTES: NCI tumour cell line growth inhibition, 48 h
OUTCOME MEASURE: TGI

Lab note: CCCCCCCC(=O)[O][Hg][CH2]C1COC([CH2][Hg][O]C(=O)CCCCCCC)CO1 (stereo not given) gave TGI of 34.3 µM

Lab note: COc1cccc2c1C(=O)c1c(O)c3c(c(O)c1C2=O)C[C@@](O)(C(=O)CO)CC3OC1CC(NCCCC(OC(C)=O)OC(C)=O)C(O)C(C)O1 (stereo not given in full) gave TGI of 0.701 µM

Lab note: COc1cc(C2c3c(ccc4ccccc34)C(=O)C3CCC(=O)N32)cc(OC)c1O (stereo not given) gave TGI of > 25 µM

Lab note: CN(C(=O)c1ccco1)C(=S)N1CCN(c2ccccn2)CC1 gave TGI of > 100 µM

Lab note: CNC(=O)NS(=O)(=O)c1ccc(C)cc1 gave TGI of > 100 µM

Lab note: COc1cccc(/C=C\c2ccc(O)cc2)c1 gave TGI of > 100 µM

Lab note: CCN1CCC(O)(c2ccc(O)cc2)C(C(=O)c2ccc(O)cc2)C1 (stereo not given) gave TGI of 35.6 µM

Lab note: O=C1/C(=C/c2ccc(Cl)cc2)CSC/C1=C\c1ccc(Cl)cc1 gave TGI of 5.57 µM

Lab note: COc1cc2c(cc1C)NC(=O)/C2=C\c1c[nH]c2ccccc12 gave TGI of 42.7 µM

Lab note: COC1=CC(=O)C2=C(C[C@@]3(C)C(=C2)C(CO)=CC[C@H]3O)C1=O gave TGI of 54.5 µM

====

# Test system: OVCAR-8 ovarian
# METHOD NOTES: NCI tumour cell line growth inhibition, 48 h
OUTCOME MEASURE: TGI

Lab note: C/C(=N/Nc1nc(C)cc(=O)[nH]1)C(=O)O gave TGI of > 100 µM

Lab note: Cn1cnc([N+](=O)[O-])c1Sc1nccc(=O)[nH]1 gave TGI of > 100 µM

Lab note: C/C(=N/N=C(N)N)c1ccc(NC(=O)Nc2ccc(/C(C)=N/N=C(N)N)cc2)cc1 gave TGI of > 78.8 µM

Lab note: COC1/C=C/C(C)C(C(C)C(OC)C(C)CCC(=O)C(C)C(CC(=O)O)OC)OC(=O)/C=C/C=C(\C)CC(OC)CC2=CC(=O)O[C@H](C2)C(C)C(OC)CC(OC)/C=C/C(C)C(OC)C1 (stereo not given in full) gave TGI of > 4.35 µM

Lab note: COCc1c(-c2ccc(NC(=O)Nc3cc(C(F)(F)F)ccc3F)c(F)c2)c2c(N)ncnn2c1CN1CCOCC1 gave TGI of > 10 µM

Lab note: O=[N+]([O-])c1cccc(N=Nc2c(O)ccc3ccccc23)c1 gave TGI of > 100 µM

Lab note: COC(=O)C1=NN2c3ccccc3CN([C@@H](C)c3ccccc3)C(=O)[C@@H]2[C@H]1c1ccccc1 gave TGI of > 100 µM

Lab note: C#Cc1cccc(NC(=O)c2ccc(NC(=O)CCl)cc2)c1 gave TGI of > 82.5 µM

Lab note: O=C(O)Cc1cccc2c(=O)c3cccc([N+](=O)[O-])c3oc12 gave TGI of > 100 µM

Lab note: O=C1C=CC2(C=C1)C[C@H](NC(=O)OCc1ccccc1)C(=O)O2 gave TGI of 31.4 µM

Lab note: COC(=O)/C(=N\NC(N)=O)C(C(=O)C=C(C)C)C(=O)C(=O)Nc1ccc(Cl)c(Cl)c1 (stereo not given) gave TGI of > 100 µM

Lab note: O=C(C/C=C/c1ccccc1)c1ccccc1 gave TGI of 49.1 µM

Lab note: Cc1ccc2nc(NC(=O)/C(=N\NC(=S)NN)C3C(=O)NC(=S)NC3=O)sc2c1 gave TGI of > 100 µM

Lab note: CN1CCN(Cc2cc(NC(=O)c3cccc(C#Cc4cccc5[nH]nc(N)c45)c3)cc(C(F)(F)F)c2)CC1 gave TGI of 3.62 µM

Lab note: COC[C@H](C)N=CN1CCc2ccccc2C1(Cc1ccccc1)Cc1ccccc1 gave TGI of 28.8 µM

Lab note: O=C1c2ccccc2C(=O)c2c(NCCCN3CCOCC3)ccc(NCCCN3CCOCC3)c21 gave TGI of 14.1 µM

Lab note: NC(=O)C(=CNC(=S)Nc1cccc(C(F)(F)F)c1)C(N)=O gave TGI of > 100 µM

Lab note: N#CC1C(=O)NC(c2ccccc2[N+](=O)[O-])c2sc3c(F)cccc3c21 (stereo not given) gave TGI of 80.9 µM

Lab note: [O-]c1c2c(nn1-c1ccc(Cl)cc1)c1ccccc1c[n+]2Cc1ccccc1 gave TGI of > 100 µM

Lab note: Nc1ccc(Sc2c3ccccc3nc3ccccc23)cc1 gave TGI of 28.6 µM

====

# Test system: PC-3 prostate
# METHOD NOTES: NCI tumour cell line growth inhibition, 48 h; in the data active = GI50 below about 0.43 µM; inactive = the rest
Choose one outcome from this list and give only that: T = active, F = inactive

Input line: Which outcome did this test record for the molecule Cc1cc(Cl)cc(Cc2cc(Cl)cc(C)c2O)c1O ?
Output line: F

Input line: Which outcome did this test record for the molecule C[CH2][Sn]([CH2]C)([O]C(=O)c1ccc(OC)c(OC)c1OC)[O]C(=O)c1ccc(OC)c(OC)c1OC ?
Output line: F

Input line: Which outcome did this test record for the molecule COc1ccc(OC)c(/C=C/c2nc(SCc3ccccc3)n(-c3ccc(Cl)cc3)n2)c1 ?
Output line: F

Input line: Which outcome did this test record for the molecule Cc1ccc(OCC2OC(n3cnc4c(Br)nc(Br)nc43)CC2Oc2ccc(C)cc2)cc1 (configuration not stated) ?
Output line: F

Input line: Which outcome did this test record for the molecule CCCCCC[C@H](C)NC(=O)c1ccc(Nc2nc3ccccc3c3occc23)cc1 ?
Output line: F

Input line: Which outcome did this test record for the molecule Fc1ccc(Nc2nc3ccccc3c3occc23)cc1 ?
Output line: F

Input line: Which outcome did this test record for the molecule CN(C)CCNC(=O)NC[C@H]1CC[C@@H]2[C@H](O1)c1cc(C(F)(F)F)ccc1N[C@H]2c1ccccc1 ?
Output line: T

Input line: Which outcome did this test record for the molecule COc1cnc2c(c1)C(=O)c1c-2n(CCCN2CCNCC2)c(=O)c2cc([N+](=O)[O-])ccc12 ?
Output line: F

Input line: Which outcome did this test record for the molecule O=[N+]([O-])c1ccc(Sc2ccncn2)c([N+](=O)[O-])c1 ?
Output line: F

Input line: Which outcome did this test record for the molecule FC(F)(F)c1cc(Nc2ccc3cc(OCCCN4CCOCC4)ccc3n2)ccc1Cl ?
Output line: F

Input line: Which outcome did this test record for the molecule N#CC1C(=O)NC(c2ccccc2[N+](=O)[O-])c2sc3c(F)cccc3c21 (configuration not stated) ?
Output line: F

Input line: Which outcome did this test record for the molecule Cc1ccc(S(=O)(=O)N2CCc3ccc(O)c4c3C2Cc2ccc3c(c2-4)OCO3)cc1 (configuration not stated) ?
Output line: F

====

# Test system: NCI-H23 lung
# METHOD NOTES: NCI tumour cell line growth inhibition, 48 h
OUTCOME MEASURE: GI50

Lab note: Cc1ccc(S(=O)(=O)N2CCc3ccc(O)c4c3C2Cc2ccc3c(c2-4)OCO3)cc1 (stereo unspecified) gave GI50 of 592 nM

Lab note: CN(C)CCNC(=O)NC[C@H]1CC[C@@H]2[C@H](O1)c1cc(C(F)(F)F)ccc1N[C@H]2c1ccccc1 gave GI50 of 495 nM

Lab note: Cc1ccc(S(=O)(=O)Nc2ccc(-c3cc(-c4cccc(F)c4)c(C#N)c(N)n3)cc2)cc1 gave GI50 of 2480 nM

Lab note: CCn1ccc(NS(=O)(=O)c2ccc(N)cc2)nc1=O gave GI50 of > 100000 nM

Lab note: Cc1ccc(OCC2OC(n3cnc4c(Br)nc(Br)nc43)CC2Oc2ccc(C)cc2)cc1 (stereo unspecified) gave GI50 of 6100 nM

Lab note: COc1cc(/C=C2\C[C@H]3[C@@H]4CC=C5C[C@@H](OC(C)=O)CC[C@]5(C)[C@H]4CC[C@]3(C)[C@H]2OC(C)=O)ccc1OCCN1CCCC1 gave GI50 of 10100 nM
